Would you kindly list TGI for each of these molecules?
Test system: SNB-75 CNS
protocolDetails: NCI tumour cell line growth inhibition, 48 h
Answers are plain numbers, in µM.

Here are 5 molecules together with their reported answers.
c1ccc(N=C2c3ccsc3C(=Nc3ccccc3)c3ccsc32)cc1: 2.45
COc1ccc(Nc2ccc([N+](=O)[O-])cc2[N+](=O)[O-])cc1CN(CCCl)CCCl: 13.4
CCc1ccc2c(c1)N(CC(C)CN(C)C)c1ccccc1S2 (configuration not stated): 9.94
C/C(=N\O)c1cccc(Nc2cc(-n3ccnc3)c3ccccc3n2)c1: 26.8
C[n+]1c2ccccc2nc2c(N)cc(N)cc21: 18.7

Hey, can you go through the list below and give me TGI for every item?
1. COc1cc(-c2nn(-c3cccc(NC(=O)CCN4CCN(Cc5ccccc5)CC4)c3)cc2-c2ccncc2)ccc1Cl
2. CC[C@@]1(O)C(=O)OCc2c1cc1n(c2=O)Cc2c-1nc1ccccc1c2/C=N\NC(=O)C(N)CCSC (some centres not stated)
3. COc1cc2c(cc1F)C(c1ccccc1Cl)=Nc1c(n[nH]c1C)N2
4. O=C(/C=C/c1ccc(Cl)c(Cl)c1)c1cccc2ccccc12
5. Cn1ccnc1Oc1ccc(Cl)cc1

Result:
1: 8.73; 2: 1.44; 3: 0.724; 4: 14; 5: 51.8

###

Test system: HCT-15 colon
protocolDetails: NCI tumour cell line growth inhibition, 48 h
readoutKind: TGI

NC1=NC(=O)C(CC(=O)Nc2ccc(Cl)cc2Cl)S1 (stereo not given): > 100 µM
COc1ccc(OC(=O)CC2Cc3cc(OC)c(OC)c(OC)c3-c3ccc(SC)c(=O)cc32)cc1 (stereo not given): > 37.7 µM
CC(C)(C)NC(=O)CCC1C(C(=O)NC(C)(C)C)C2(Cl)C(Cl)=C(Cl)C1(Cl)C2(Cl)Cl (stereo not given): > 100 µM
CCC(=O)Nc1ccc(N2C(=O)/C(=C/c3ccc(OC)cc3)N=C2c2ccccc2)cc1: > 50 µM

Query: Query for HCT-15 colon: what TGI does the record show for CCOC(=O)C1Nc2ccccc2[C@H]2OCC[C@@H]12 (stereo not given in full) ?
Result: > 100 µM

###

Tested on: MALME-3M melanoma
protocolDetails: NCI tumour cell line growth inhibition, 48 h
Would you kindly list TGI for each of these molecules?

Here are 4 molecules together with their reported answers.
c1ccc2c(c1)CCc1c-2n[nH]c1-c1[nH]nc2c1CCc1ccccc1-2: > 100 µM
NC1=NC(=O)C(CC(=O)Nc2ccc(Cl)cc2Cl)S1 (stereo unspecified): > 100 µM
Clc1ccc(C2ON=C(c3ccccc3)N2C23CC4CC(CC(C4)C2)C3)cc1 (stereo unspecified): > 10 µM
COC(=O)C(C(=O)C(=O)Nc1ccc([N+](=O)[O-])cc1)c1nc2ccc([N+](=O)[O-])cc2[nH]c1=O (stereo unspecified): > 100 µM

Hey, can you go through the list below and give me TGI for every item?
1. Cc1ccncc1C(N)=O
2. Nc1n[nH]c2ccc([C@@H]3Nc4cc5c(cc4[C@H]4C6CCC(C6)[C@@H]34)C(=O)NC5)cc12 (stereo partly specified)
3. CSc1ccc(C2=NN(C(C)=O)C(c3ccc(-c4ccc(Cl)cc4)o3)C2)cc1 (stereo unspecified)
4. O=c1[nH]c2nc3ccccc3c(=O)n2/c1=C/c1ccco1

Result:
["> 100 µM", "> 100 µM", "> 100 µM", "> 100 µM"]

Hey, can you go through the list below and give me TGI for every item?
1. COc1cc(O)c2c(=O)c(OC)c(-c3ccc(OC)c(OC)c3)oc2c1
2. O=Nc1c(-c2c(O)[nH]c3ncccc23)[nH]c2ccccc12
3. N#C/C(C(=S)NCc1ccccc1)=C(/N)N1CCCC1
4. Nc1nc(N)c(CCCCc2ccccc2)c(N)n1
5. FC(F)(F)c1cccc(-c2nn3ncccc3c2-c2ccnc(Nc3ccc4c(c3)OCCO4)n2)c1
6. C[N+](C)(C)c1ncnc2c1ncn2C1CCCO1 (stereo unspecified)

Result:
> 100 µM
> 41.5 µM
> 100 µM
> 100 µM
> 25 µM
> 100 µM

###

System: HCT-15 colon
protocolDetails: NCI tumour cell line growth inhibition, 48 h; in the data active = GI50 below about 0.43 µM; inactive = the rest
Would you mind answering with one of these outcomes? True (active), False (inactive)

Solved cases (4 shown):
CC1c2ccccc2CCN1c1ccc(CO)c(Cl)c1 (stereo unspecified): False
CSc1ccc(C2=NN(C(C)=O)C(c3ccc(-c4ccc(Cl)cc4)o3)C2)cc1 (stereo unspecified): False
CC1C=CC(OC(=O)C(C)(O)CCC(O)(C(=O)OC2CC(O)C(C(C)C)CC2(C)O)C(C)C)(C(C)C)CC1 (stereo unspecified): True
N/C(=N\OC(=O)c1ccccc1)C(Cc1ccccc1)C(=O)NOC(=O)c1ccccc1 (stereo unspecified): False

Query: What did the test return for CCN1C(=O)N(CC)C2C1NN=c1s/c(=C\c3ccc(F)cc3)c(=O)n12 (stereo unspecified) ?
Result: True

Query: What did the test return for "N#CCCNc1nonc1-c1nc2ccccc2n1CC(=O)c1ccc(NC(=O)[C@@H](N)CCCCN)cc1" ?
Result: True

###

Would you kindly list TGI for each of these molecules?
Test system: SF-539 CNS
protocolDetails: NCI tumour cell line growth inhibition, 48 h

NC(N)=NCCC(O)(P(=O)(O)O)P(=O)(O)O: > 100 µM
Cn1ccnc1Oc1ccc(Cl)cc1: 31.7 µM
C[C@@H]1O[C@@H](O[C@@H]2[C@@H](O)[C@H](OCCc3ccc(O)c(O)c3)O[C@H](CO)[C@H]2OC(=O)/C=C/c2ccc(O)c(O)c2)[C@H](O)[C@H](OC2OC[C@](O)(CO)[C@H]2O)[C@H]1O (some centres not stated): > 100 µM
Cc1ccc(C2C3Cc4ccccc4C3=NN2c2ccc(S(=O)(=O)/N=c3\scc(-c4ccccc4)n3-c3ccccc3)cc2)cc1 (configuration not stated): 37.3 µM
Fc1ccc(/C=N/n2c(-c3ccc(F)c(Cl)c3)n[nH]c2=S)cc1: > 100 µM
CC(CO)(Nc1ccc([N+](=O)[O-])cc1[N+](=O)[O-])C(=O)O (configuration not stated): 91.1 µM

Shift focus to the following entry.
Query: Field request: TGI | item: "NNc1nnc(-c2nnc(NN)o2)o1"
Result: > 10 µM

###

Test system: LOX IMVI melanoma
protocolDetails: NCI tumour cell line growth inhibition, 48 h
Would you kindly list TGI for each of these compounds?
Answers are plain numbers, in µM.

Here are 3 compounds together with their reported answers.
O=C(NCCNCCO)c1cccc2ccc(-c3ccccc3)nc12: 10.5
CCc1ccc2c(c1)N(CC(C)CN(C)C)c1ccccc1S2 (stereo not given): 10.3
Cn1ccnc1Oc1ccc(Cl)cc1: 36.6

Shift focus to the following entry.
Query: Field request: TGI | item: "COc1ccc(/C=C(\C)[N+](=O)[O-])cc1OC"
Result: 2.97

###

System: DU-145 prostate
protocolDetails: NCI tumour cell line growth inhibition, 48 h
Would you kindly list TGI for each of these compounds?

Here are 4 compounds together with their reported answers.
COc1cc(C(=O)Nc2cc(O)c(CC=C(C)C)c(O)c2)cc2c1O[C@]1(C)CC[C@@H](O)C(C)(C)[C@H]1C2: 21.7 µM
O=c1[nH]c(Nc2nc3ccccc3[nH]2)nc(O)c1Cc1ccccc1: > 100 µM
Oc1c(-c2cc(C(F)(F)F)[nH]n2)cc(Cl)c(OCc2ccc(Cl)cc2)c1-c1ccc(Cl)c(C(F)(F)F)c1: 6.39 µM
O=C(Nc1ccccc1OC(=O)c1ccccc1)c1ccccc1: 88.7 µM

Hey, can you go through the list below and give me TGI for every item?
1. C=CCc1cc(Nc2c3ccc(Cl)cc3nc3ccc(OC)cc23)cc(CN(CC)CC)c1O
2. CCc1c(C)nc2sc3c(N)ncnc3c2c1C
3. OC(c1cccnc1Cl)c1nc2ccccc2c2ccnc(Cl)c12 (stereo not drawn)
4. COc1ccc2c3c1O[C@H](c1ccc(O)cc1)[C@H]3[N+](C)(C)CC2
5. O=Nc1c(-c2c(O)[nH]c3ncccc23)[nH]c2ccccc12
6. CN(C)CCc1c2c(nc3ccccc13)C(=O)c1cccnc1C2=O
7. COc1cc2c(cc1F)C(c1ccccc1Cl)=Nc1c(n[nH]c1C)N2
8. O=c1[nH]c2nc3ccccc3c(=O)n2/c1=C/c1ccco1

Result:
14.2 µM
> 25 µM
> 100 µM
> 100 µM
> 100 µM
1.22 µM
21 µM
> 100 µM

Query: Field request: TGI | item: CC(CO)(Nc1ccc([N+](=O)[O-])cc1[N+](=O)[O-])C(=O)O (stereo not drawn)
Result: 48.9 µM

###

Would you kindly list TGI for each of these molecules?
System: NCI-H460 lung
protocolDetails: NCI tumour cell line growth inhibition, 48 h

Here are 4 molecules together with their reported answers.
O=C(CN1N=C(c2ccc(F)cc2)CCC1=O)Nc1nc2ccccc2s1: > 100 µM
C[n+]1c2ccccc2nc2c(N)cc(N)cc21: 59 µM
N#CNc1nc(N)c(-c2ccc(Cl)cc2)c(C(=O)Nc2nccs2)n1: > 100 µM
COc1cccc(Oc2ccccc2NC(=O)CNC(=O)c2cccc3ccccc23)c1: 4.53 µM

Hey, can you go through the list below and give me TGI for every item?
1. N#CCCC1(CCC#N)CCCCCCCCC(CCC#N)(CCC#N)C(O)C1O (stereo unspecified)
2. COc1cc(C2(C)SCCCS2)cc(OC)c1OC
3. Cc1cc2c(cc1C)[n+](=O)c(C(=O)c1ccccc1)c(C(F)(F)F)n2[O-]
4. CC(=O)OCC1OC(OCCCOP(=S)(OCCC#N)OCC2OC(n3ccc(N)nc3=O)C(OC(=O)c3ccccc3)C2OC(=O)c2ccccc2)C(OC(C)=O)C(OC(C)=O)C1OC(C)=O (stereo unspecified)
5. C=CCOc1ccc(C2C(C(=O)OC)C(=O)CC(O)(c3ccccc3)C2C(=O)OC)cc1OC (stereo unspecified)
6. CCCC(S(=O)(=O)c1ccccc1)S(=O)(=O)c1ccccc1
7. CO/N=C1/c2sccc2[C@H](NC(=O)C(Cc2ccccc2)NC(=O)OC(C)(C)C)[C@@H]1O (stereo partly specified)
8. NC1=NC(=O)C(CC(=O)Nc2ccc(Cl)cc2Cl)S1 (stereo unspecified)

Result:
1. > 100 µM
2. > 100 µM
3. 2.98 µM
4. > 100 µM
5. > 100 µM
6. > 100 µM
7. > 100 µM
8. > 100 µM

Hey, can you go through the list below and give me TGI for every item?
1. O=c1[nH]c(Nc2nc3ccccc3[nH]2)nc(O)c1Cc1ccccc1
2. CCCc1[nH]c2ccccc2c1-c1c(CCC)[nH]c2ccccc12
3. C=C1CC[C@@H](C)[C@](C)(CCc2ccoc2)C/C=C\C=C/1C(=O)O
4. Nc1n[nH]c2ccc([C@@H]3Nc4cc5c(cc4[C@H]4C6CCC(C6)[C@@H]34)C(=O)NC5)cc12 (stereo partly specified)

Result:
> 100 µM
59.7 µM
> 100 µM
> 100 µM

Where do these numbers come from? They come from PubChem BioAssay (NCI).
